Exercise: state measured solubility kinetic for each of the compounds provided.
conditions: buffer; pH 7.4; 200.0 µM
Give a bare numeral; the unit µg/mL is implied.

QUERY: Fill in reported solubility kinetic for this entry: O=C(NC1=NCCS1)c1ccc(C(F)(F)F)cc1
RESULT: 6.1

QUERY: Fill in reported solubility kinetic for this entry: CCOc1ccccc1N(C)C(=O)c1cn(C)c(=O)c2ccccc12
RESULT: 48.1

QUERY: Fill in reported solubility kinetic for this entry: Cc1cc(Nc2ccc(Cl)cc2)nc(N2CCOCC2)n1
RESULT: 1.8

QUERY: Fill in reported solubility kinetic for this entry: CC(C)/C=C1\CCc2c([nH]c3ccccc23)C1=O
RESULT: 1.5

QUERY: Fill in reported solubility kinetic for this entry: O=C(CN1C(=O)NC2(CCCc3ccccc32)C1=O)c1ccc(F)c(F)c1 (centres undefined)
RESULT: 17.3

QUERY: Fill in reported solubility kinetic for this entry: Fc1ccccc1-c1nc(-c2cnccc2C(F)(F)F)no1
RESULT: 8

QUERY: Fill in reported solubility kinetic for this entry: COc1cccc(CC(=O)NCCCSc2ccccc2)c1
RESULT: 47.3

QUERY: Fill in reported solubility kinetic for this entry: O=C(COC(=O)/C=C/c1ccc(F)cc1)NCc1ccco1
RESULT: 5.1

QUERY: Fill in reported solubility kinetic for this entry: CC(=O)Nc1ccc(S(=O)(=O)N2CCN(c3ccc([N+](=O)[O-])cc3)CC2)cc1
RESULT: 0.4

QUERY: Fill in reported solubility kinetic for this entry: Cc1ccc(CNC(=O)C2CC(=O)N(CCC(C)C)C2)cc1 (centres undefined)
RESULT: 40.5
